Assay: Rate of dissolution of rebaudioside A polymorphic and amorphous forms in water
Assay type: physicochemical
quantity: Rate of dissolution in H2O at 25° C. (grade in words)

* C=C1C[C@@]23CC[C@H]4[C@@](C)(CCC[C@@]4(C)C(=O)O[C@@H]4O[C@H](CO)[C@@H](O)[C@H](O)[C@H]4O)[C@@H]2CC[C@]1(O[C@@H]1O[C@H](CO)[C@@H](O)[C@H](O[C@@H]2O[C@H](CO)[C@@H](O)[C@H](O)[C@H]2O)[C@H]1O[C@@H]1O[C@H](CO)[C@@H](O)[C@H](O)[C@H]1O)C3 [Form 3, rebaudioside A] | High
* C=C1C[C@@]23CC[C@H]4[C@@](C)(CCC[C@@]4(C)C(=O)O[C@@H]4O[C@H](CO)[C@@H](O)[C@H](O)[C@H]4O)[C@@H]2CC[C@]1(O[C@@H]1O[C@H](CO)[C@@H](O)[C@H](O[C@@H]2O[C@H](CO)[C@@H](O)[C@H](O)[C@H]2O)[C@H]1O[C@@H]1O[C@H](CO)[C@@H](O)[C@H](O)[C@H]1O)C3 [Form 4, rebaudioside A] | High
